- system: recombinant human NGF protein (human, UniProt P01138 122-241)
- Sequence (P01138 122-241 limits assumed): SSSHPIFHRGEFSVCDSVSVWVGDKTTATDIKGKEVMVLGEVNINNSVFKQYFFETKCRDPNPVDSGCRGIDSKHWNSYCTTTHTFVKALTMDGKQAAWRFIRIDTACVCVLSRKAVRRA
- protocolSummary: cell-based or functional assay
Lab note - cut at 0.04 nM for IC50, inhibition of NGF-induced proliferation of TF-1 cell: label 1 if strictly below, label 0 if not.

IC50, inhibition of NGF-induced proliferation of TF-1 cell strictly < 0.04 nM for this binder? humanized anti-NGF antibody 138E12-07 (antibody, V domains shown) VH: QVQLQESGPGLVKPSETLSLTCTVSGFSLTGYGVNWIRQPPGKGLEWIGMIWFEGSTDYQSALKSRVTISVDTSKNQFSLKLSSVTAADTAVYYCAREGYYYGTTYYFDYWGQGTTVTVSS VL: DIQMTQSPSSLSASVGDRVTITCRASQDISNYLNWYQQKPGKAPKLLIYYTSRLHSGVPSRFSGSGSGTDYTLTISSLQPEDFATYFCQQGNTLPRTFGGGTKVEIK
label 0

IC50, inhibition of NGF-induced proliferation of TF-1 cell strictly < 0.04 nM for this binder? humanized anti-NGF antibody 138E12-09 (antibody, V domains shown) VH: QVQLQESGPGLVKPSETLSLTCTVSGFSLTGYGVNWIRQPPGKGLEWIGMIWFDGSTDYQSALKSRVTISKDNSKSQVSLKLSSVTAADTAVYYCAREGYYYGTTYYFDYWGQGTTVTVSS VL: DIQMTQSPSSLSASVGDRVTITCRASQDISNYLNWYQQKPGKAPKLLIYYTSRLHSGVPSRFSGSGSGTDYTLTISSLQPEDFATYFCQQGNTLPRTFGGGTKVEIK
label 1

IC50, inhibition of NGF-induced proliferation of TF-1 cell strictly < 0.04 nM for this binder? humanized anti-NGF antibody 138E12-01 (antibody, V domains shown, Humanized antibody expressed in CHO cells) VH: QVQLQESGPGLVKPSETLSLTCTVSGFSLTGYGVNWIRQPPGKGLEWIGMIWFDGSTDYNSALKSRVTISKDNSKSQVSLKLSSVTAADTAVYYCAREGYYYGTTYYFDYWGQGTTVTVSS VL: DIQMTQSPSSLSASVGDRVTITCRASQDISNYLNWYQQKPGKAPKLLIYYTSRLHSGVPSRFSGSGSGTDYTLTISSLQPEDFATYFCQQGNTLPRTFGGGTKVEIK
label 1

IC50, inhibition of NGF-induced proliferation of TF-1 cell strictly < 0.04 nM for this binder? humanized anti-NGF antibody 43E5-02 (antibody, V domains shown, Humanized antibody expressed in CHO cells) VH: QVQLVQSGAEVKKPGASVKVSCKASGYTFTDYEMHWVRQAPGQGLEWIGAIDPETGGTAYNQKFKGRATLTADKSISTAYMELSRLRSDDTAVYYCRRGANLNHYGNDEGSYWGQGTLVTVSS VL: DVVMTQSPLSLPVTLGQPASISCKSSQSLLHSVGKTYLNWLQQRPGQSPRRLIYLVSKLDSGVPDRFSGSGSGTDFTLKISRVEAEDVGVYFCWQGTHLPQTFGGGTKVEIK
label 0

IC50, inhibition of NGF-induced proliferation of TF-1 cell strictly < 0.04 nM for this binder? humanized anti-NGF antibody 138E12-04 (antibody, V domains shown) VH: QVQLQESGPGLVKPSETLSLTCTVSGFSLTGYGVNWIRQPPGKGLEWLGMIWFDASTDYNSALKSRLTISKDNSKSQVSLKLSSVTAADTAVYYCAREGYYYGTTYYFDYWGQGTTVTVSS VL: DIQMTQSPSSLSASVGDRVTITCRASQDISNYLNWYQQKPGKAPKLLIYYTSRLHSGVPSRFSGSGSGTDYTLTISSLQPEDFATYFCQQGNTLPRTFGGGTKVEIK
label 0
